test: Human HepG2 cell viability assay in 384 well format; type: toxicity, cell-based; set-up: dose 125 nL, time 70.5 hour; concentration not given beside the values; details: HepG2 cells, read-out: Inhibition
Exercise: state measured cytotoxicity at 70.5 h for each of the molecules provided.
Answer format: numeric, % implied, no suffix.

Field cytotoxicity at 70.5 h (entry CCc1nccn1C1CCCN(C(=O)c2ccc(OC)c(OC)c2)C1 (stereo not given) ) reads 9.92

Field cytotoxicity at 70.5 h (entry COC(=O)CN(C(=O)c1cc(C(C)C)no1)c1cccc(F)c1 ) reads -8.3

Field cytotoxicity at 70.5 h (entry COc1cc2cc(C(=O)O)n(C)c2cc1OC ) reads -14.4

Field cytotoxicity at 70.5 h (entry Cc1cccc(C2(C(=O)NS(=O)(=O)c3cnn(C)c3)CCCC2)c1 ) reads -1.9

Field cytotoxicity at 70.5 h (entry COc1ccc(N2CCC(NCc3csc(C(C)C)n3)CC2)cc1 ) reads 4.75

Field cytotoxicity at 70.5 h (entry CN1CCN([C@@H]2CCN(CC3CCOC3)[C@H]2Cc2cnn(C)c2)CC1 (stereo not given in full) ) reads -13

Field cytotoxicity at 70.5 h (entry Cc1ncsc1C(=O)N1CCc2[nH]nc(-c3ccc4c(c3)OCO4)c2C1 ) reads 13.6

Field cytotoxicity at 70.5 h (entry CCc1ccc(NC(=O)C(C)Nc2cccc3c2OCCO3)cc1 (stereo not given) ) reads 2

Field cytotoxicity at 70.5 h (entry CCc1nnc2n1CC(CNCc1nnc(C(C)(C)C)o1)CC2 (stereo not given) ) reads -6.78

Field cytotoxicity at 70.5 h (entry Cc1cccc(C2(C(=O)NCCCn3cccn3)CC2)c1 ) reads -5.49

Field cytotoxicity at 70.5 h (entry CC1CCc2nc(NC(=O)CN(C)C(=O)c3ccco3)sc2C1 (stereo not given) ) reads 28.3

Field cytotoxicity at 70.5 h (entry Cn1cnnc1C1CCN(C(=O)COCc2ccccc2Cl)CC1 ) reads -11.8

Field cytotoxicity at 70.5 h (entry CC(C)c1ccc(OCCC(=O)N(C)CC(N)=O)cc1 ) reads -12.9

Field cytotoxicity at 70.5 h (entry CN(Cc1cc(=O)c(O)co1)C1CCCN(c2ccccc2)C1 (stereo not given) ) reads 24.6

Field cytotoxicity at 70.5 h (entry Cn1cccc1C(=O)N1CCc2onc(Cn3cccn3)c2C1 ) reads -5.3

Field cytotoxicity at 70.5 h (entry CCc1ncnc2c1CCN(CCOC)CC2 ) reads -9.59

Field cytotoxicity at 70.5 h (entry CC(=O)NC1CCCN(Cc2ccc(OCc3ccccn3)cc2)C1 (stereo not given) ) reads -6.3

Field cytotoxicity at 70.5 h (entry Cc1nc(N2CC[C@@H](c3ccc4ccccc4c3)[C@H](O)C2)no1 ) reads 3.2

Field cytotoxicity at 70.5 h (entry Cc1ccc(C(C)(O)CNC(=O)c2sccc2Br)o1 (stereo not given) ) reads 4.05

Field cytotoxicity at 70.5 h (entry CC(C)NC(=O)N1CCOC2(CNC2)C1 ) reads -4.25

Field cytotoxicity at 70.5 h (entry CCCN(C(=O)c1ccncc1)c1nc2c(s1)CCc1c-2cnn1C ) reads 18.2

Field cytotoxicity at 70.5 h (entry CN(C)Cc1cc(=O)n2c(n1)CN(CC1CCOCC1)CCC2 ) reads -10.5

Field cytotoxicity at 70.5 h (entry CC(=O)Nc1sccc1C(=O)C(C)(C)C ) reads 16.1

Field cytotoxicity at 70.5 h (entry Cc1nn(C)c(N2CCOCC2)c1CNC(C(N)=O)c1ccccc1 (stereo not given) ) reads 4.26

Field cytotoxicity at 70.5 h (entry Cc1cc(NC(=O)CN2CCCC2c2noc(C3CC3)n2)no1 (stereo not given) ) reads 1.09

Field cytotoxicity at 70.5 h (entry COc1cc(CNCc2ccnc(N3CCCCC3)c2)cc(OC)c1 ) reads 4.65

Field cytotoxicity at 70.5 h (entry Cn1cccc1C(O)CNS(=O)(=O)Cc1ccccc1 (stereo not given) ) reads 12.5

Field cytotoxicity at 70.5 h (entry CCNc1ncc(C(=O)NC2CCSC2)cn1 (stereo not given) ) reads 8.53

Field cytotoxicity at 70.5 h (entry CC(Nc1nc2c(cnn2C)c(=O)[nH]1)c1ccc2c(c1)CCCC2 (stereo not given) ) reads -3.73

Field cytotoxicity at 70.5 h (entry Cn1nc2c(c1NC(=O)c1ccc(Cl)s1)CCC2 ) reads -8.38

Field cytotoxicity at 70.5 h (entry N#Cc1ccc(CN2C(=O)c3ccccc3CS2(=O)=O)cc1 ) reads -1.6

Field cytotoxicity at 70.5 h (entry O=C(CN1CCC[C@H]1C(=O)O)NCCOc1cccc(Cl)c1 ) reads -1.34

Field cytotoxicity at 70.5 h (entry O=C(CCn1ccc(=O)[nH]c1=O)N1CCC(Oc2ncccc2Cl)CC1 ) reads -6.14

Field cytotoxicity at 70.5 h (entry Cc1nc(C(F)(F)F)nc(N2CCC(O)(C(=O)O)CC2)c1C ) reads -6.27

Field cytotoxicity at 70.5 h (entry CS(=O)(=O)NCc1ncn2c1CN(C(=O)C1CCCCC1)CCC2 ) reads -4.09

Field cytotoxicity at 70.5 h (entry Cc1noc(C)c1S(=O)(=O)N1CCC(Oc2cccnn2)CC1 ) reads -0.269

Field cytotoxicity at 70.5 h (entry Cc1nc(CN2CCCC(N(C)c3ccc(C#N)cn3)C2)no1 (stereo not given) ) reads -2.54

Field cytotoxicity at 70.5 h (entry Cc1cc(C(=O)NCc2ccc(N3CCN(C)CC3)nc2)c(C)s1 ) reads -12.2

Field cytotoxicity at 70.5 h (entry Cc1csc2c(=O)n3c(nc12)CCN(C(=O)c1ccnn1C)CC3 ) reads -6.6

Field cytotoxicity at 70.5 h (entry COCc1cccc(S(=O)(=O)Nc2ncc(C)s2)c1 ) reads -12.2

###

Exercise: state measured cytotoxicity at 70.5 h for each of the compounds provided.
assay: Human HepG2 cell viability assay in 384 well format; type: toxicity, cell-based; design: dose 125 nL, time 70.5 hour; concentration not given beside the values; settings: HepG2 cells, read-out: Inhibition
Answer format: numeric, % implied, no suffix.

Field cytotoxicity at 70.5 h (entry COc1ccc(-c2n[nH]cc2CN(C)Cc2ccoc2)c(F)c1 ) reads -1.92

Field cytotoxicity at 70.5 h (entry CC1CCN(S(=O)(=O)c2cccn(CC(=O)NC3CCCC3)c2=O)CC1 ) reads -3.39

Field cytotoxicity at 70.5 h (entry CC(=O)c1cnc(N(C)Cc2cnc3ccccc3n2)nc1C ) reads -5.98

Field cytotoxicity at 70.5 h (entry Cc1ccc(F)c(C(=O)N2CCN(S(C)(=O)=O)[C@@H](C)C2)c1 ) reads -3.67

Field cytotoxicity at 70.5 h (entry N#CCCN(Cc1ccccn1)C(=O)Nc1cccc(F)c1 ) reads -6.04

Field cytotoxicity at 70.5 h (entry COc1ccc(NC(=O)NCC(O)c2ccc(F)cc2F)c(OC)c1 (configuration not stated) ) reads 2.76

Field cytotoxicity at 70.5 h (entry CN(C)c1cc2c(nn1)CCN(C(=O)C1CCc3ccccc31)C2 (configuration not stated) ) reads 13.5

Field cytotoxicity at 70.5 h (entry c1cnn(Cc2ccc(CN3CCC4(CCCNC4)C3)cc2)c1 (configuration not stated) ) reads 21.4

Field cytotoxicity at 70.5 h (entry O=S1(=O)COCCN1CCOc1ccc(F)cc1 ) reads -5.2

Field cytotoxicity at 70.5 h (entry Cc1cncc(C2CCCN(C(=O)c3cnco3)C2)n1 (configuration not stated) ) reads -3.92

Field cytotoxicity at 70.5 h (entry COc1cc(N2CCC3(CC2)CC(N2CCOCC2)CO3)ncn1 (configuration not stated) ) reads -2.9

Field cytotoxicity at 70.5 h (entry CC(C)NC(=O)c1ccc2nnc(C3CCN(C(=O)NC(C)C)C3)n2c1 (configuration not stated) ) reads -0.652

Field cytotoxicity at 70.5 h (entry c1cnc(N2CCC3(CCCN(CC4CCCCC4)C3)C2)cn1 (configuration not stated) ) reads -11.2

Field cytotoxicity at 70.5 h (entry CNc1cc(CNC(=O)c2ccccn2)nc(-c2ccncc2)n1 ) reads 11.9

Field cytotoxicity at 70.5 h (entry CC(C)n1ccnc1C1CCN(C(=O)c2ccccc2N(C)C)CC1 ) reads -2.41

Field cytotoxicity at 70.5 h (entry COc1ccc(F)cc1S(=O)(=O)NCC(O)c1sccc1C (configuration not stated) ) reads -2.63

Field cytotoxicity at 70.5 h (entry Cc1ccc(-c2cc(C3CCNCC3)nc(C)n2)cc1 ) reads -6.7

###

Exercise: state measured cytotoxicity at 70.5 h for each of the compounds provided.
assay: Human HepG2 cell viability assay in 384 well format; type: toxicity, cell-based; set-up: dose 125 nL, time 70.5 hour; concentration not given beside the values; settings: HepG2 cells, read-out: Inhibition
Answer format: numeric, % implied, no suffix.

Field cytotoxicity at 70.5 h (entry CC1(c2ccccc2)CCCN(Cc2cncn2C2CCCC2)C1 (stereo unspecified) ) reads -13.6

Field cytotoxicity at 70.5 h (entry Cn1ccc2cc(CC3COCCN(C(=O)c4ccccn4)C3)ccc21 (stereo unspecified) ) reads -6.94

Field cytotoxicity at 70.5 h (entry CN(C)CCN1C[C@@H]2CN(C(=O)c3ccsc3)C[C@@H]2C1=O ) reads -2.41

Field cytotoxicity at 70.5 h (entry c1cnc(N2CCCC3(COCCN(c4nncs4)C3)C2)cn1 (stereo unspecified) ) reads -6.49

Field cytotoxicity at 70.5 h (entry Cc1n[nH]c(C)c1CC(=O)N1CCC2(CC1)CN(C)CCN2C ) reads 23.4

Field cytotoxicity at 70.5 h (entry Cc1ncc2c(n1)CN(CC(=O)Nc1c(C)nn(C)c1C)CC2 ) reads -1.17

Field cytotoxicity at 70.5 h (entry CN(Cc1csc(-c2cccs2)n1)C(=O)CCn1ccc(=O)[nH]c1=O ) reads 10.9

Field cytotoxicity at 70.5 h (entry CC(C(=O)NCCOc1ccc2c(c1)CCC2)n1cncn1 (stereo unspecified) ) reads 7.17

Field cytotoxicity at 70.5 h (entry COC(=O)c1ccc(N2CCC(N(C)c3ccccc3)CC2)nn1 ) reads 3.35

Field cytotoxicity at 70.5 h (entry CCS(=O)(=O)CCNc1nc(C2CCCC2)nc2c1cnn2C ) reads -6.16

Field cytotoxicity at 70.5 h (entry Cc1nnc(NC(=O)NCc2ccc(N3CCOCC3)nc2)s1 ) reads -5.81

Origin of values: ChEMBL document CHEMBL3507680
